- system_name: hDGAT2 (Homo sapiens (Human))
- Sequence (Q96PD7 whole entry): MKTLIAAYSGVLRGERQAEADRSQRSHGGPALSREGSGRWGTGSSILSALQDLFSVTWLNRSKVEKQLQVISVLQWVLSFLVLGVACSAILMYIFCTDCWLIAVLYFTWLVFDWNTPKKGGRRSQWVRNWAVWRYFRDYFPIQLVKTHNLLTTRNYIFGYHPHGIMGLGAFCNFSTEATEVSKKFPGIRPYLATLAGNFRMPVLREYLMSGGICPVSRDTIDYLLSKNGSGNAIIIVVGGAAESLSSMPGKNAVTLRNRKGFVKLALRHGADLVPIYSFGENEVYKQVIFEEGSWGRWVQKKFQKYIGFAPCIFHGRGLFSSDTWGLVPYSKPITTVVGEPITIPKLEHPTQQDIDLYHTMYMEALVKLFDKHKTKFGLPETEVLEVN
readout_name: IC50 (nM)
Give bare numbers, in nM.

See these solved cases before continuing.
CC(CNC(=O)c1ccc(-c2cccc(OC(F)(F)F)c2)c2c1CN(C(=O)NC(C)(C)C)CC2)c1cccnc1 (stereo not shown) [Example 78] | 1180
CC(C)(C)NC(=O)N1CCc2c(-c3cccc(C(F)(F)F)c3)ccc(C(=O)NCc3ccc4nonc4c3)c2C1 [Example 17] | 132
CC(C)(C)NC(=O)N1CCc2c(-c3cccc(C(F)(F)F)c3)ccc(C(=O)NCCc3cn4ccccc4n3)c2C1 [Example 23] | 244
CC(C)(C)NC(=O)N1CCc2c(-c3cccc(OC(F)(F)F)c3)ccc(C(=O)NCc3cn4ccsc4n3)c2C1 [Example 74] | 1540

Dear reader, for each entry below, please note its IC50.
1. CC(C)(C)NC(=O)N1CCc2c(-c3cccc(C(F)(F)F)c3)ccc(C(=O)NCc3conc3C#N)c2C1 [Example 27]
2. CC(C)(C)NC(=O)N1CCc2c(-c3cccc(C(F)(F)F)c3)ccc(C(=O)NCCc3nc4ccccc4[nH]3)c2C1 [Example 9]
3. CC(C)(C)NC(=O)N1CCc2c(-c3cccc(C(F)(F)F)c3)ccc(C(=O)NCc3nccc4cccnc34)c2C1 [Example 24]

Key:
[314, 51.1, 265]
